- Experimental system: CYP2E1 (Homo sapiens)
- Sequence (P05181 whole entry): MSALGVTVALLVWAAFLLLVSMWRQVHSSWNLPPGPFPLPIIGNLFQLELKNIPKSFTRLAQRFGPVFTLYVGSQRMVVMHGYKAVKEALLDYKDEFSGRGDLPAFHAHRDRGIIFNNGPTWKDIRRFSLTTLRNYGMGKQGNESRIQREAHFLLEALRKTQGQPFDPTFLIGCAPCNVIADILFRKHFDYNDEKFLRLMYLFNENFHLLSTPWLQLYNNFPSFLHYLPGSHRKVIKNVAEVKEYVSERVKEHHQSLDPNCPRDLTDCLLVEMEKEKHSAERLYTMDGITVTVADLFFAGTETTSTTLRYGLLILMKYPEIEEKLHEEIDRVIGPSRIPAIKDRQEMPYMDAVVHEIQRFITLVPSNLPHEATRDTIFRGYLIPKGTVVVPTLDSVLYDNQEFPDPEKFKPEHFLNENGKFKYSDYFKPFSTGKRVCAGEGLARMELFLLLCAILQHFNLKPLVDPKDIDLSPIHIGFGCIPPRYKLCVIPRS
- Method summary: Vivid CYP450 fluorescence assay, reversible inhibition
Quantity: IC50 (µM)
Quick reminder: number only, in µM, skip the unit.

Query: Lab note: need IC50 with CYP2E1 (Homo sapiens) for entry C[C@H](N)C(=O)c1ccccc1 , please look it up.
Response: 568

###

- Experimental system: CYP2A6 (Homo sapiens)
- Sequence (P11509 whole entry): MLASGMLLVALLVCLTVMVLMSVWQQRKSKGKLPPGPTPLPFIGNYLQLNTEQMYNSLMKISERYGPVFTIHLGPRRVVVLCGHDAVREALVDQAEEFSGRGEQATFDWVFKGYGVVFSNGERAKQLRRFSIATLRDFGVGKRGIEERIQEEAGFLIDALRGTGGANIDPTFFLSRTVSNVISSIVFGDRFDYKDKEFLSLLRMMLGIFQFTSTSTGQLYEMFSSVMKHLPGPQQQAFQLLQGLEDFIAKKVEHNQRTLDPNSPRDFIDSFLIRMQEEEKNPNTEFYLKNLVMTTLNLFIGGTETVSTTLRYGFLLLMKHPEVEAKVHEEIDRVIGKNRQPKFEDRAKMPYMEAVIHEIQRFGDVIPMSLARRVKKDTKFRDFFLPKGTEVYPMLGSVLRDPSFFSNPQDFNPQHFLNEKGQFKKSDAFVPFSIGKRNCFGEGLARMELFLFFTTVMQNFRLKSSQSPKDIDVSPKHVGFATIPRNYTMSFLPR
- Method summary: Vivid CYP450 fluorescence assay, reversible inhibition
Quantity: pIC50
# pIC50 = -log10(concentration in molar units)

Query: Lab note: need pIC50 with CYP2A6 (Homo sapiens) for entry C[C@H](N)C(=O)c1ccccc1 , please look it up.
Response: 4.94

Source listed as paper PMC9742833.
